test: Clinical study #4: PK of edaravone oral formulation (formula #2), high-fat meal 1 hour after administration vs fasted; type: in vivo, human; details: male, human, plasma, po, 100 mg, 100 mg oral, fasted (n = 9); read-out: AUC1h-∞
assay metric: partial AUC

compound: CC1=NN(c2ccccc2)C(=O)C1 [Edaravone, 3-methyl-1-phenyl-2-pyrazolin-5-one]
assay metric: partial AUC
endpoint result: 756 ng·h/mL

----------
Test: Clinical study #10: PK of edaravone oral formulation (formula #7, 120 mg), standard meal 30 minutes after administration vs fasted
Assay type: in vivo, human
Conditions: male, human, plasma, po, 120 mg, 120 mg oral, formula #7, fasted (n = 6), mean
Method: Effects of meal consumption 30 minutes after administration of the edaravone oral formulation on the pharmacokinetics of edaravone were evaluated. […] On the other hand, as a fasted group for reference, the edaravone oral formulation was administered orally to different subjects in fasted conditions, blood samples were collected, and the concentrations of unchanged edaravone in plasma were measured in the same manner.

compound structure: CC1=NN(c2ccccc2)C(=O)C1
unit info: min
Tmax: 22.8

----------
experiment: Clinical study #4: PK of edaravone oral formulation (formula #2), high-fat meal 1 hour after administration vs fasted; format: in vivo, human; conditions: male, human, plasma, po, 100 mg, 100 mg oral, 1 h before high-fat meal (n = 9); read-out: AUC1h-∞

compound structure: CC1=NN(c2ccccc2)C(=O)C1
partial AUC (ng·h/mL): 703

----------
test: Clinical study #5: PK of edaravone oral formulation (formula #3) in ALS patients, oral, fasted; type: in vivo, human; conditions: human, plasma; 105 mg oral, fasted, ALS patients (n = 9), mean, before weight correction

compound structure: CC1=NN(c2ccccc2)C(=O)C1
Tmax: 18.6 min

----------
test: Clinical study #3: PK of edaravone oral formulation (formula #3), fasted vs after high-fat, standard or light meal; analysis of variance; type: in vivo, human; settings: male, human, plasma, po, 105 mg, 105 mg oral, formula #3, 2 h after standard meal, mean (n = 16)

compound structure: CC1=NN(c2ccccc2)C(=O)C1
half-life, h: 11.2

----------
experiment: Clinical study #3: PK of edaravone oral formulation (formula #3), fasted vs after high-fat, standard or light meal; analysis of variance; assay type: in vivo, human; conditions: 105 mg oral, 8 hours after high-fat meal

compound structure: CC1=NN(c2ccccc2)C(=O)C1
Cmax Min: 595 ng/mL

----------
test: Clinical study #3: PK of edaravone oral formulation (formula #3), fasted vs after high-fat, standard or light meal; analysis of variance; type: in vivo, human; settings: 105 mg oral, fasted

compound structure: CC1=NN(c2ccccc2)C(=O)C1
Cmax Min, ng/mL: 797

----------
assay: Clinical study #4: PK of edaravone oral formulation (formula #2), high-fat meal 1 hour after administration vs fasted; assay type: in vivo, human; conditions: male, human, plasma, po, 100 mg, 100 mg oral, formula #2, fasted, mean (n = 9)

compound: CC1=NN(c2ccccc2)C(=O)C1 [Edaravone, 3-methyl-1-phenyl-2-pyrazolin-5-one]
unit info: h
half-life: 9.33

----------
experiment: Clinical study #1: PK of edaravone oral formulation (formula #1), fasted vs 30 min after high-fat meal; format: in vivo; conditions: male, human, plasma, 200 mg, 200 mg oral, formula #1, 30 min after high-fat meal, mean (n = 5)
assay metric: AUC(0-inf) (ng·h/mL)

compound structure: CC1=NN(c2ccccc2)C(=O)C1
endpoint result: 2470

Measured values drawn from patent US12310946B2 for this set.
